molecular target: California Variant W152C_L452R_D614G
Assign IC50 to each entry below.
Value expressed in nM; do not type the unit.

Lab book: IC50 of Antibody 1-1 (Fc fusion) EVQLVESGGGLVQPGGSLRLSCAASGSIGSINAMGWFRQAPGKEREWVAGISNGGTTNYADSVKGRFTISADNSKNTAYLQMNSLKPEDTAVYYCAADGVPEYSDYASGPVWGQGTLVTVSS noted as 4.4

Short answer for Antibody 1-10 (Fc fusion) EVQLVESGGGLVQPGSSLRLSCAASGGTFSSIGMGWFRQAPGKEREFVAAISWDGGATAYADSVKGRFTISADNSKNTAYLQMNSLKPEDTAVYYCAKEDVGKPFDWGQGTLVTVSS : IC50 was 0.13
